Sourced from paper PMC9005681

# Test system: cloned human or rodent CNS receptors, channels, and transporters (PDSP panel)
# experiment.description: PDSP GPCR panel primary binding assays at 10 μM
# experimental.conditions: Receptor Sigma 1; primary assay, 10 μM
Recorded Inhibition 2, one value per entry.
property.measured: Inhibition 2 (%)

CCCCNc1ncc2c(-c3ccc(CN4CCN(C)CC4)cc3)cn([C@H]3CC[C@H](O)CC3)c2n1 [UNC2025C, UNC2025] = 61.96
O=c1oc2ccccc2cc1-c1cn2cc(Cc3ccc(F)cc3)sc2n1 [UNC10302680A, iMDK] = -7.42
c1cn2cc(-c3ccc4cn[nH]c4c3)nc(Nc3ccc(N4CCOCC4)cc3)c2n1 [UNC10302678A, Entospletinib (GS-9973)] = 17.43
Cl.NC(=O)c1cnc(N[C@@H]2CCCC[C@@H]2N)nc1Nc1cccc(-n2nccn2)c1 [UNC10302682A, P505-15 (PRT06207 HCl)] = 35.34

---

# measured.on: cloned human or rodent CNS receptors, channels, and transporters (PDSP panel) (Homo sapiens, UniProt P21918)
# Construct: expressed in transfected cells
# Sequence (P21918 whole entry): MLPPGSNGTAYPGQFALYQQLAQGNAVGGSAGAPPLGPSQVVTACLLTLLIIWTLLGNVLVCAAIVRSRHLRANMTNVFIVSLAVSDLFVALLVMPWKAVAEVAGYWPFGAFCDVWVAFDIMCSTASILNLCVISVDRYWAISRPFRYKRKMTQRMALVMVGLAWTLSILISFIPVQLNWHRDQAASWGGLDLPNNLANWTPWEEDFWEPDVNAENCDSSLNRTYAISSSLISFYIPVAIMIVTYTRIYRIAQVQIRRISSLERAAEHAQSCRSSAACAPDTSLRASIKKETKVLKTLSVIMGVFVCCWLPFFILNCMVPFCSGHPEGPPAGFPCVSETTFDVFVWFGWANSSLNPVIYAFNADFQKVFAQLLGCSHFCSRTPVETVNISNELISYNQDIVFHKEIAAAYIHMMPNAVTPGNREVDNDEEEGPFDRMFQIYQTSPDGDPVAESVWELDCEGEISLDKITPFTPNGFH
# experiment.description: PDSP GPCR panel primary binding assays at 10 μM
# experimental.conditions: D5; primary assay, replicate 1
property.measured: Inhibition 1 (%)

CC(=O)N1CCC(NC(=O)NC23CC4CC(CC(C4)C2)C3)CC1 [UNC10302683A, AR9281] = -7.18
CNc1nc(C)nc(N[C@H]2CCC[C@@H](C(=O)NCc3ccc(C#N)cc3C(F)(F)F)C2)n1 [UNC10302679A, GSK2256294A] = 0.61
CCC(=O)N1CCC(NC(=O)Nc2ccc(OC(F)(F)F)cc2)CC1 [UNC10302681A, TPPU] = -6.27
O=C(NC1CC1)C(=O)C(Cc1ccccc1)NC(=O)[C@H]1CCC(=O)N1Cc1ccccc1 (stereo partly shown) [UNC10302676A, ABT-957 (Alicapistat)] = 0

---

Recorded Inhibition 4, one value per entry.
# measured.on: cloned human or rodent CNS receptors, channels, and transporters (PDSP panel) (Homo sapiens, UniProt P50406)
# Construct: expressed in transfected cells
# Sequence (P50406 whole entry): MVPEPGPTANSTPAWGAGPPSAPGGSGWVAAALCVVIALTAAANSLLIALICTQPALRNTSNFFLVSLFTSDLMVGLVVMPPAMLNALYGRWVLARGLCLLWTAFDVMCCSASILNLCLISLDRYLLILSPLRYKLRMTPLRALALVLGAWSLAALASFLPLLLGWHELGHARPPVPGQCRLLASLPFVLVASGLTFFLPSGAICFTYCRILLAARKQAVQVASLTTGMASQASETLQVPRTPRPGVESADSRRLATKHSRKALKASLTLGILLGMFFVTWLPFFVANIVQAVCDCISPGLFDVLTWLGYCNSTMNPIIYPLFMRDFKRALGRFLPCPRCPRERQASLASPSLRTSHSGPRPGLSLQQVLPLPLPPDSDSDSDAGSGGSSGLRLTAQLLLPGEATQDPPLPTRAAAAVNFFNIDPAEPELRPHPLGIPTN
# experiment.description: PDSP GPCR panel primary binding assays at 10 μM
# experimental.conditions: 5-HT6; primary assay, replicate 4
property.measured: Inhibition 4 (%)

O=C(NC1CC1)C(=O)C(Cc1ccccc1)NC(=O)[C@H]1CCC(=O)N1Cc1ccccc1 (stereo partly shown) [UNC10302676A, ABT-957 (Alicapistat)] = -8.54
CCC(=O)N1CCC(NC(=O)Nc2ccc(OC(F)(F)F)cc2)CC1 [UNC10302681A, TPPU] = -12.5
CC(=O)N1CCC(NC(=O)NC23CC4CC(CC(C4)C2)C3)CC1 [UNC10302683A, AR9281] = -6.79
CNc1nc(C)nc(N[C@H]2CCC[C@@H](C(=O)NCc3ccc(C#N)cc3C(F)(F)F)C2)n1 [UNC10302679A, GSK2256294A] = -11.23

---

Recorded Inhibition 4, one value per entry.
# measured.on: cloned human or rodent CNS receptors, channels, and transporters (PDSP panel) (Homo sapiens, UniProt P08173)
# Construct: expressed in transfected cells
# Sequence (P08173 1-479): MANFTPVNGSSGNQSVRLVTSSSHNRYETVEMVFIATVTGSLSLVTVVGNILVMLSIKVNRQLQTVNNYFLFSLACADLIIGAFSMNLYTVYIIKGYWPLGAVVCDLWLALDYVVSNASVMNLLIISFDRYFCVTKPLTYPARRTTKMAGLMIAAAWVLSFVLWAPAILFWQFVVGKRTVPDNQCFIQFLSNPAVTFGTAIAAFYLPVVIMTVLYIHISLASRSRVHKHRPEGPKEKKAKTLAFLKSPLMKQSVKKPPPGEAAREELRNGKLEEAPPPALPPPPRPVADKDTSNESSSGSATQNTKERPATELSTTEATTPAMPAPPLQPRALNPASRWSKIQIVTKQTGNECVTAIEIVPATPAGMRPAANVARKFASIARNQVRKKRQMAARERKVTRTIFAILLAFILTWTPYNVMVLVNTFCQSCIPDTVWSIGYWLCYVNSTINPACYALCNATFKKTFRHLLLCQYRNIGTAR
# experiment.description: PDSP GPCR panel primary binding assays at 10 μM
# experimental.conditions: Receptor M4; primary assay, 10 μM
property.measured: Inhibition 4 (%)

CCCCNc1ncc2c(-c3ccc(CN4CCN(C)CC4)cc3)cn([C@H]3CC[C@H](O)CC3)c2n1 [UNC2025C, UNC2025] = 18.49
Cl.NC(=O)c1cnc(N[C@@H]2CCCC[C@@H]2N)nc1Nc1cccc(-n2nccn2)c1 [UNC10302682A, P505-15 (PRT06207 HCl)] = 18.49
c1cn2cc(-c3ccc4cn[nH]c4c3)nc(Nc3ccc(N4CCOCC4)cc3)c2n1 [UNC10302678A, Entospletinib (GS-9973)] = 23.54
O=c1oc2ccccc2cc1-c1cn2cc(Cc3ccc(F)cc3)sc2n1 [UNC10302680A, iMDK] = 10.91
